Data provenance is patent US5561047A.

# measurementTarget: integrin αIIb β3 (washed human platelets) (Homo sapiens, UniProt P05106+P08514)
# Construct: endogenous in cells
# Sequence (P08514 32-887 limits assumed): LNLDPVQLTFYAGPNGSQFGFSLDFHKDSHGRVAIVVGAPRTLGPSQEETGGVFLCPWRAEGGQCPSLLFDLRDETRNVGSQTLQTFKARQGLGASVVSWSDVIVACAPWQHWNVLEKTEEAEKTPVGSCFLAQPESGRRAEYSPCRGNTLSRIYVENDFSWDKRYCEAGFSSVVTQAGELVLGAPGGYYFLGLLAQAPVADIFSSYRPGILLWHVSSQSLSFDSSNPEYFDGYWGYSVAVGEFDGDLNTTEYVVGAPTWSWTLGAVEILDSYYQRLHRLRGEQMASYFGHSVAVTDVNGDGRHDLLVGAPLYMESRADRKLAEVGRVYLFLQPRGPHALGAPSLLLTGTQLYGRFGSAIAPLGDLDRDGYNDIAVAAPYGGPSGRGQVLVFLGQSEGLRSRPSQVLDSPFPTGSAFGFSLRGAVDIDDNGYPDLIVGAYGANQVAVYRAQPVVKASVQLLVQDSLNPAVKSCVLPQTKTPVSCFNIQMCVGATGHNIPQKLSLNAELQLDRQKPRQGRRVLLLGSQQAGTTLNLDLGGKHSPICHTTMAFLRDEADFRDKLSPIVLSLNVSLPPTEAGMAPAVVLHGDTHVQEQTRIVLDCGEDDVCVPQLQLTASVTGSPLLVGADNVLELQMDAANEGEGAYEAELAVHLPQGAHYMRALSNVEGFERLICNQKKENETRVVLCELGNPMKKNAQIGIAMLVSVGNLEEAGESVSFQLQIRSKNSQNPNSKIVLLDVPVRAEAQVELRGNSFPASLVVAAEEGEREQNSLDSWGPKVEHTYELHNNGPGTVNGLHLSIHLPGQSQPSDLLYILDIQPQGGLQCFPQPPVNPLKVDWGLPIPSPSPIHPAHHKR
# Sequence (P08514 891-1039 limits assumed): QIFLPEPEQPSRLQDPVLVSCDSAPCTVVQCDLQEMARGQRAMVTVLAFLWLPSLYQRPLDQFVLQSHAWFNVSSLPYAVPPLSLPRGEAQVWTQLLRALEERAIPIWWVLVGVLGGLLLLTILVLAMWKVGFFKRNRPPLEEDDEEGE
# Sequence (P05106 27-788): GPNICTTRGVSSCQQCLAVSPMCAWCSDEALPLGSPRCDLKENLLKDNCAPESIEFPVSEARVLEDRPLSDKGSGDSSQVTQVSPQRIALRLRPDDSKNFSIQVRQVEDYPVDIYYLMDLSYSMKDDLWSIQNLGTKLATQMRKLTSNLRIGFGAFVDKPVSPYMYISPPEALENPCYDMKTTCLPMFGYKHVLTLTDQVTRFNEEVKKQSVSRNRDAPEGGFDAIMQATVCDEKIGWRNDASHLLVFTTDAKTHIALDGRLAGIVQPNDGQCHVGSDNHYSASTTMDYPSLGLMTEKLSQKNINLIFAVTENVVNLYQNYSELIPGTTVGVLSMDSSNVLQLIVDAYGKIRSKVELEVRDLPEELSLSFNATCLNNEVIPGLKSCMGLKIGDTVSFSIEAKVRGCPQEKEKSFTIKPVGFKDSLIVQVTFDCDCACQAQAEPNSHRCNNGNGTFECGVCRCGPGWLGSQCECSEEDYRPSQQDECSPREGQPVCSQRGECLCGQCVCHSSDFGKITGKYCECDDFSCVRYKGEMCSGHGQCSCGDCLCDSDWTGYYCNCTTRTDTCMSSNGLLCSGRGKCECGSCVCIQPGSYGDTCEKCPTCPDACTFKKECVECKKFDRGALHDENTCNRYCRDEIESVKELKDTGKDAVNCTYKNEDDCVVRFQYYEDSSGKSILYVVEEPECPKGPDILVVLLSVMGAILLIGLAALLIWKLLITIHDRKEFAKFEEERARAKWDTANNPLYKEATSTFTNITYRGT
# measurementProtocol: integrin activation ELISA: biotin-PAC1 binding to intact washed platelets
recordedMetric: EC50

For the molecule shown here, Nc1ncnc2c1ncn2[C@@H]1O[C@H](COP(=O)(O)OP(=O)(O)O)[C@@H](O)[C@H]1O [ADP] , give the reported EC50.
~1 µM
